target-system: Anti-CD28 Fab (SEQ ID NOs: 696, 697) (biotinylated (site not given))
Sequence (VH, as listed by the source, chain 1 of 2): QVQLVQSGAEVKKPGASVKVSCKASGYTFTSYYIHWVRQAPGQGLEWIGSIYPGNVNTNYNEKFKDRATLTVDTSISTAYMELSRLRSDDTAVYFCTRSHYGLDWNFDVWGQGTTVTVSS
Sequence (VL, as listed by the source, chain 2 of 2): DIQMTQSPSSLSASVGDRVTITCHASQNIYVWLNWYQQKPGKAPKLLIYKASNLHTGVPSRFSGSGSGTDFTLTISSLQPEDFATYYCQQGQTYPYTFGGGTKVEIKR
measurement-notes: phage binding ELISA; biotinylated anti-CD28 Fab on neutravidin plate, clonal phage detected with anti-M13-HRP;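 also: crude clonal phage supernatants added briefly to wells preincubated in blocking buffer with or without CD28 antigen, then washed before detection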
Where no end group is shown, it is not given here.
metric: Anti-CD28 Fab (SEQ ID NOs: 696, 697) signal

| binder | test-result |
| --- | --- |
| TCAAVFSYGWPECF [Phage-1396] | 2.09 |
| TCSAGAYYTWPYCF [Phage-1395] | 2.09 |
| MCAEFFNYPWPLCL (cysteine pairing not given here; also: fused to phage pIII protein) [Phage-1393] | 2.11 |
| LCAAGATYAWPLCL [Phage-1392] | 2.13 |
| TCAAGATYEWPACL [Phage-1394] | 2.09 |
| YCAAGATYPWPLCL [Phage-1399] | 2.08 |
| QCAAGASYPWPMCL [Phage-1398] | 2.08 |
